Test system: CP185
PROTOCOL TEXT: qHTS profiling for inhibitors of Plasmodium falciparum proliferation (AID 504749); further: nearly all actives have a fitted effect of over 60% in size
REPORTED CONDITIONS: P. falciparum in erythrocytes, SYBR Green DNA, 72 h; series mostly up to 28.7 µM
Results filed as inconclusive are left out. The source made the active and inactive calls. The call rests on the fitted dose curve; in most records, active means well fitted inhibition curve with a large enough effect; inconclusive means small, poorly fitted or top-dose-only effect; inactive means flat fitted curve, though single readings scatter.
Answer with one of the outcomes active, inactive

* CCC1(c2ccccc2)C(=O)NCNC1=O | inactive

Lookup: Hi team, can someone confirm the assay call for COc1ccccc1OCC(O)CN1CCN(CC(=O)Nc2c(C)cccc2C)CC1 (stereo unspecified) ?
Found: inactive

Lookup: For CC(C)(C)C(=O)Oc1ccc(S(=O)(=O)Nc2ccccc2C(=O)NCC(=O)O)cc1 , which call appears in the assay record?
Found: inactive

Lookup: Outcome logged for COc1cc2c(c(OC)c1OC)-c1ccc(OC)c(=O)cc1[C@@H](NC(C)=O)CC2 in this assay:
Found: inactive

Lookup: Query: recorded result category for CCCCc1oc2ccccc2c1C(=O)c1cc(I)c(OCCN(CC)CC)c(I)c1 in this test
Found: active

Lookup: For O=C(c1ccc(F)cc1)C1CCN(CCn2c(=O)[nH]c3ccccc3c2=O)CC1 , what call appears in the results of this test?
Found: inactive

Lookup: Name the outcome recorded for CC(=O)OCC(CCn1cnc2cnc(N)nc21)COC(C)=O in the assay.
Found: inactive

Lookup: For this compound, state the assay outcome: Cc1cn([C@H]2C[C@H](N=[N+]=[N-])[C@@H](CO)O2)c(=O)[nH]c1=O
Found: inactive

Lookup: Name the outcome recorded for NCCc1cnc[nH]1 in the assay.
Found: inactive

Lookup: Called result for CN(C)c1nc(N(C)C)nc(N(C)C)n1
Found: inactive

Lookup: Status in this test for O=C1N(c2ccccc2)c2ccccc2C1(Cc1ccncc1)Cc1ccncc1 ?
Found: inactive

Lookup: What classification did O=c1c(-c2ccc(O)cc2)coc2cc(O)cc(O)c12 end up with in this test?
Found: inactive

Lookup: For Cc1cn([C@H]2C=C[C@@H](CO)O2)c(=O)[nH]c1=O , what call appears in the results of this test?
Found: inactive

Lookup: Identify the outcome logged in this assay for the compound shown: CC(C)NCC(O)COc1ccc(CCOCC2CC2)cc1 (stereo unspecified)
Found: inactive

Lookup: Per the assay record, what outcome was assigned to NC12CC3CC(CC(C3)C1)C2 ?
Found: inactive

Lookup: Give the logged outcome of this assay for the following compound: CC(CCc1ccc(O)cc1)NCCc1ccc(O)c(O)c1 (stereo unspecified)
Found: inactive

Lookup: What did the test return for COc1nc(C)nc(Cl)c1NC1=NCCN1 ?
Found: inactive

Lookup: Just curious, what result did CC(C)NCC(O)c1ccc(O)c(O)c1 (stereo unspecified) get here?
Found: inactive

Lookup: Answer briefly: the call reported for Cc1cc(C(C)(C)C)cc(C)c1CC1=NCCN1 in this assay.
Found: inactive

---

PROTOCOL TEXT: Quantitative High-Throughput drug screen in 47 multiple myeloma cell lines against the NCATS MIPE library collection: L363_DSMZ cell viability assay (AID 1918984); further: nearly all actives have a fitted effect of over 40% in size
REPORTED CONDITIONS: L363 myeloma viability, CellTiter-Glo ATP luminescence, 48 h; series mostly up to 45.8 µM
Records with an inconclusive call do not appear. Calls of active or inactive are those of the source. Calls follow the shape of the dose curve; as a rule, active = well fitted cell-killing curve with a large enough effect; inconclusive = small, poorly fitted or top-dose-only effect, or effect the other way; inactive = no such curve, though single readings can be large or run the other way.
# output must be one of True for active, False for inactive

Below, 5 compounds whose answers are already recorded.
* O=C(C1CCCCC1)N1CC(=O)N2CCc3ccccc3C2C1 (configuration not stated) | False
* Nc1nc2c(ncn2COC(CO)CO)c(=O)[nH]1 | True
* CNCCCC12CCC(c3ccccc31)c1ccccc12 | True
* O=C(Nc1ccc([N+](=O)[O-])cc1Cl)c1cc(Cl)ccc1O | True
* CC(C)NCC(O)c1ccc(O)c(O)c1 (configuration not stated) | True

Lookup: GET /call?item= COc1ccc(C2CNC(=O)C2)cc1OC1CCCC1 (configuration not stated) returns the recorded outcome of this test.
Found: False

---

SUBJECT OF TEST: Cytochrome P450 2D6 (Homo sapiens) (UniProt P10635)
Sequence (P10635 whole entry, looked up): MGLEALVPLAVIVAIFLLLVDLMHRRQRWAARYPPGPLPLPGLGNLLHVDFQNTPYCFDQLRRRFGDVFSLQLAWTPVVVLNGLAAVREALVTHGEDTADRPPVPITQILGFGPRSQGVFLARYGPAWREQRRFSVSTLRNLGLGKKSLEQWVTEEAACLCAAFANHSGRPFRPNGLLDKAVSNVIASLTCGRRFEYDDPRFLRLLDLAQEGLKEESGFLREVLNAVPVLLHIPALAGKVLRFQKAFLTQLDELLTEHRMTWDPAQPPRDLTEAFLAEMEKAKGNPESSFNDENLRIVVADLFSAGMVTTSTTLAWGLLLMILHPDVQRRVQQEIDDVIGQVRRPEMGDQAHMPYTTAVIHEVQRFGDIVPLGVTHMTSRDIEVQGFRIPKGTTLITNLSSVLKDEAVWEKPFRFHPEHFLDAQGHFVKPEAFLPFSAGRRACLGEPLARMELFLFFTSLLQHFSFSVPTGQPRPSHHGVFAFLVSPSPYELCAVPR
PROTOCOL TEXT: qHTS Assay for Inhibitors and Substrates of Cytochrome P450 2D6 (AID 891); further: nearly all actives have a fitted effect of over 60% in size; further: potency means the concentration at half of the fitted maximal effect
REPORTED CONDITIONS: recombinant CYP2D6, luciferin-ME EGE luminescence; series mostly up to 57.1 µM
Results filed as inconclusive are left out. Active and inactive are the calls of the source. Calls follow the shape of the dose curve; as a rule, active = well fitted inhibition curve with a large enough effect; inconclusive = small, poorly fitted or top-dose-only effect; inactive = no such curve, though single readings can be large or run the other way.
MEASURED METRIC: Potency

• O=c1c(O)c(-c2ccc(O)c(O)c2)oc2cc(O)cc(O)c12 = inactive
• COc1ccc2c(c1)c(CC(=O)O)c(C)n2C(=O)c1ccc(Cl)cc1 = inactive
• N[C@@H](Cc1c[nH]c2ccc(O)cc12)C(=O)O = inactive
• O=c1c(-c2ccc(O)cc2)coc2cc(O)cc(O)c12 = inactive
• Clc1ccccc1C(c1ccccc1)(c1ccccc1)n1ccnc1 = 10 µM (active)

Below are some compounds; for each one, tell me its Potency.
1. O=c1[nH]cc(F)c(=O)[nH]1
2. CCOC(=O)c1ncn2c1CN(C)C(=O)c1cc(F)ccc1-2

Found:
1: inactive; 2: inactive

Give Potency for each of the items listed below.
1. CN(C)CCC=C1c2ccccc2C=Cc2ccccc21
2. CC(C)C(=O)Nc1ccc([N+](=O)[O-])c(C(F)(F)F)c1
3. COC(=O)Nc1nc2ccc(C(=O)c3cccs3)cc2[nH]1
4. CCC1(c2ccccc2)C(=O)NCNC1=O
5. CS(=O)(=O)Nc1ccc([N+](=O)[O-])cc1Oc1ccccc1

Found:
6.31 µM (active)
inactive
inactive
inactive
inactive

Go through the items and report each one's Potency.
1. CN1C(C(=O)Nc2ccccn2)=C(O)c2ccccc2S1(=O)=O
2. COc1cc2nc(N3CCN(C(=O)c4ccco4)CC3)nc(N)c2cc1OC
3. O=C1N(c2ccccc2)c2ccccc2C1(Cc1ccncc1)Cc1ccncc1
4. Cc1cc(C(C)(C)C)cc(C)c1CC1=NCCN1

Found:
1. inactive
2. inactive
3. inactive
4. 3.98 µM (active)

---

PROTOCOL TEXT: qHTS to identify inhibitors of the type 1 interferon - major histocompatibility complex class I in skeletal muscle: primary screen against the NCATS Pharmaceutical Collection (AID 1347407);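 further: luminescence of HiBiT knocked into endogenous HLA-B as interferon-induced MHC class I level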
REPORTED CONDITIONS: human skeletal muscle cells, IFN-b-induced MHC-I HiBiT luminescence, 24 h; series mostly up to 45.9 µM
Inconclusive results are not listed. The source made the active and inactive calls. Calls come from the whole dose curve; as a rule, active = well fitted inhibition curve with a large enough effect; inconclusive = small, poorly fitted or top-dose-only effect; inactive = flat fitted curve, though single readings scatter.
MEASURED METRIC: outcome

These solved cases illustrate the format of a correct answer.
• CC(COc1ccccc1)N(CCCl)Cc1ccccc1 (stereo unspecified) = inactive
• CCc1cccc2c3c([nH]c12)C(CC)(CC(=O)O)OCC3 (stereo unspecified) = inactive
• CCN1CCCC1CNC(=O)c1cc(S(=O)(=O)CC)c(N)cc1OC (stereo unspecified) = inactive
• NCCCCCC(=O)O = inactive
• COc1ccccc1N1CCN(CC(O)COc2cccc3ccccc23)CC1 (stereo unspecified) = inactive

// outcome lookup, compound = CC1(C)O[C@H]2CC(=O)OC[C@]23[C@H]2CC[C@@]4(C)[C@H](c5ccoc5)OC(=O)[C@H]5O[C@]54[C@]2(C)C(=O)C[C@@H]13 , result: inactive

---

Test system: DFO2036
PROTOCOL TEXT: qHTS profiling for inhibitors of Plasmodium falciparum proliferation (AID 504749); further: nearly all actives have a fitted effect of over 60% in size; further: potency means the concentration at half of the fitted maximal effect
REPORTED CONDITIONS: P. falciparum in erythrocytes, SYBR Green DNA, 72 h; series mostly up to 28.7 µM
Results filed as inconclusive are left out. Activity calls are given as the source filed them. Calls come from the whole dose curve; as a rule, active = well fitted inhibition curve with a large enough effect; inconclusive = small, poorly fitted or top-dose-only effect; inactive = flat fitted curve, though single readings scatter.
MEASURED METRIC: Potency

Some entries whose results are on file:
* CC[N+](CC)(CC)CCOc1cccc(OCC[N+](CC)(CC)CC)c1OCC[N+](CC)(CC)CC | inactive
* Clc1ccc2nsnc2c1NC1=NCCN1 | inactive
* CN(C)CCCN1c2ccccc2CCc2ccc(Cl)cc21 | inactive
* Clc1ccccc1C(c1ccccc1)(c1ccccc1)n1ccnc1 | 708 nM (active)
* CN(C)CCC=C1c2ccccc2C=Cc2ccccc21 | inactive

For every item in the list below, what is its measured Potency?
1. O=C1c2c(O)ccc(O)c2C(=O)c2c(NCCNCCO)ccc(NCCNCCO)c21
2. CC(C)Cc1ccc(C(C)C(=O)O)cc1 (configuration not stated)
3. CN(CCOc1ccc(NS(C)(=O)=O)cc1)CCc1ccc(NS(C)(=O)=O)cc1
4. COc1ccc2[nH]cc(CCNC(C)=O)c2c1
5. O=C1N(c2ccccc2)c2ccccc2C1(Cc1ccncc1)Cc1ccncc1
6. CN(C)C(=N)N=C(N)N

Found:
2510 nM (active)
inactive
inactive
inactive
inactive
inactive

With DFO2036 as the test system, CCCNCC(O)COc1ccccc1C(=O)CCc1ccccc1 (configuration not stated) showed Potency of 1000 nM (active)

---

PROTOCOL TEXT: Quantitative High-Throughput drug screen in 47 multiple myeloma cell lines against the NCATS MIPE library collection: VP6_DJ cell viability assay (AID 1919867); further: nearly all actives have a fitted effect of over 40% in size
REPORTED CONDITIONS: ATP luminescence, 48 h; series mostly up to 45.8 µM
Records with an inconclusive call do not appear. Calls of active or inactive are those of the source. Calls come from the whole dose curve; as a rule, active = well fitted cell-killing curve with a large enough effect; inconclusive = small, poorly fitted or top-dose-only effect, or effect the other way; inactive = no such curve, though single readings can be large or run the other way.
The categories you may choose from are active, inactive

Below are worked cases with known answers.
* Clc1ccc2nsnc2c1NC1=NCCN1 | inactive
* O=C(C1CCCCC1)N1CC(=O)N2CCc3ccccc3C2C1 (configuration not stated) | inactive
* CN(C)C(=O)C(CCN1CCC(O)(c2ccc(Cl)cc2)CC1)(c1ccccc1)c1ccccc1 | active
* CCN1CCCC1CNC(=O)c1cc(S(=O)(=O)CC)c(N)cc1OC (configuration not stated) | inactive
* O=C1Cc2cc(CCN3CCN(c4nsc5ccccc45)CC3)c(Cl)cc2N1 | active

Would you kindly look at the next entry?
Lookup: Would you mind telling me which call this test gave CN1CCC(=C2c3ccccc3CC(=O)c3sccc32)CC1 ?
Found: active
